experiment description: Soluble aggregates of transiently expressed antibodies
Assay type: physicochemical
condition description: Protein A purified antibody
assay readout: % soluble aggregate (%)
Return type: number; implicit unit %.

The recorded % soluble aggregate for J1-65D variant 4: humanised/de-immunised J1-65D: J1-65D_VL_1 + J1-65D_VH_4 (antibody, V domains shown) VH: QVQLVQSGAEVKKPGSSVKVSCKASGYTFTDYEMHWVRQAPGQGLEWMGAIQPGGGGTAYAQKFQGRVTITADKSTSTAYMELSSLRSEDTAVYYCTRRGYDDYPFAYWGQGTLVTVSSASTKGP VL: DIQMTQSPSSLSASVGDRVTITCRASGNIHNYLAWYQQKPGKAPKLLIYNAKTLADDVPSRFSGSGSGTDYTLTISSLQPEDFATYYCQHFWSAPWTFGGGTKLEIKRT is 0

Data point: J1-65D variant 15: humanised/de-immunised J1-65D: J1-65D_VL_4 + J1-65D_VH_3 (antibody, V domains shown) VH: QVQLVQSGAEVKKPGSSVKVSCKASGYTFTDYEMHWVRQAPGQGLEWMGAIQPGGGGTAYAQKFQGRVTLTADKSTSTAYMELSSLRSEDTAVYYCTRRGYDDYPFAYWGQGTLVTVSS VL: DIQMTQSPSSLSASVGDRVTITCRASQGIHNYLAWYQQKPGKAPKLLIYNAKTLADAVPSRFSGSGSGTDYTLTISSLQPEDFATYYCQQFWSAPWTFGQGTKLEIK ; % soluble aggregate = 5.29

Measured values drawn from patent US9725518B2 for this set.
